System: TRIM31 mRNA
Assay: TRIM31 mRNA expression by RT-qPCR in PA/OA-induced L02 cells
Assay type: cell-based, human
Conditions: Homo sapiens, L02, read-out: Qdrug/Qctrl (TRIM31 mRNA expression level, drug group divided by control group)
endpoint-label: fold induction at 100 µM
// return just the number, without any unit appended

Could you tell me which fold induction at 100 µM is on file for `O=c1c(O)c(-c2ccc(O)cc2)oc2cc(O)cc(O)c12` ?
3.26

# query: fold induction at 100 µM of entry `COc1ccc([C@@H]2CC(=O)c3c(O)cc(O)cc3O2)cc1O`
3.06

What does the data say about its fold induction at 100 µM? Entry: `COc1cc(-c2cc(=O)c3c(O)cc(O)cc3o2)cc(OC)c1O`
2.9

Given CC(C)(S)[C@@H](N)C(=O)O [Penicillamine, reference compound] , state its recorded fold induction at 100 µM.
1.72

# fold induction at 100 µM lookup, item `O=c1c(O)c(-c2cc(O)c(O)c(O)c2)oc2cc(O)cc(O)c12`
3.25

What value of fold induction at 100 µM has been reported for the following compound? COc1cc2nccc(Oc3ccc(NC(=O)NC4CC4)c(Cl)c3)c2cc1C(N)=O [Lenvatinib, reference compound]
2.75

Requested read-out: fold induction at 100 µM. Entry: COc1ccc2cc3[n+](cc2c1OC)CCc1cc2c(cc1-3)OCO2 [Berberine, reference compound]
1.32

GET /values?readout=fold induction at 100 µM&item= `CC[C@H]1CN2CC[C@]3(C(=O)Nc4ccccc43)[C@@H]2C[C@@H]1/C(=C\OC)C(=O)OC`
1.92

* * *

Tested on: TRIM31 mRNA
Assay: TRIM31 mRNA expression by RT-qPCR in PA/OA-induced L02 cells
Format: cell-based, human
Settings: Homo sapiens, L02, read-out: Qdrug/Qctrl (TRIM31 mRNA expression level, drug group divided by control group)
endpoint-label: fold induction at 100 µM
Output spec: single numeric token, no unit.

Report fold induction at 100 µM for `COc1cc(-c2oc3cc(O)cc(O)c3c(=O)c2O)ccc1O` please.
2.77

Recorded fold induction at 100 µM of `O=c1cc(-c2ccc(O)cc2)oc2cc(O)c(O)c(O)c12` , please.
3.2

Value lookup for fold induction at 100 µM; key = O=C1c2c(O)cc(O)cc2O[C@H](c2ccc(O)c(O)c2)[C@H]1O [Dihydroquercetin]
3.32

Form field: reported fold induction at 100 µM of `COc1cc(/C=C/C(=O)CC(=O)/C=C/c2ccc(O)c(OC)c2)ccc1O`
2.83

Request the reported fold induction at 100 µM associated with `O=C(/C=C/c1ccc(O)c(O)c1)O[C@@H]1C[C@](O)(C(=O)O)C[C@@H](O)[C@H]1O`
2.42

* * *

Tested on: TRIM31 mRNA
Experiment: TRIM31 mRNA expression by RT-qPCR in PA/OA-induced L02 cells
Format: cell-based, human
Conditions: Homo sapiens, L02, read-out: Qdrug/Qctrl (TRIM31 mRNA expression level, drug group divided by control group)
Procedure: Palmitic acid/oleic acid (PA/OA) was used to induce the decrease of TRIM31 mRNA expression in human hepatocyte L02 cells. The cells were divided into control group and drug group. The drug group was treated with a concentration of 100 μmol/L compound, and the expression level of TRIM31 mRNA was detected by RT-qPCR. The expression level of TRIM31 mRNA in the drug group divided by that in the control group (Qdrug/Qctrl) was used to evaluate the ability of the compounds to promote TRIM31 expression. […]
endpoint-label: fold induction at 100 µM

Reported fold induction at 100 µM for COc1cc(/C=C/C(=O)O)ccc1O [Ferulic acid] : what is it?
2.51

For O=c1cc(-c2ccc(O)cc2)oc2cc(O)cc(O)c12 [Apigenin] , what is its reported fold induction at 100 µM?
3.21

Which fold induction at 100 µM value is on record for COc1cc(C(=O)OCCCCNC(=N)N)cc(OC)c1O [Leonurine] ?
1.51

Any idea what fold induction at 100 µM was measured for O=c1cc(-c2ccccc2)oc2cc(O)c(O)c(O)c12 [Baicalein] ?
3.53

Can you share its fold induction at 100 µM? I mean this compound: O=c1c(-c2ccc(O)cc2)coc2cc(O)ccc12 [Daidzein]
2.66

fold induction at 100 µM for COc1cc2c(cc1OC)[C@@H]1Cc3ccc(OC)c(OC)c3CN1CC2 [Tetrahydropalmatine] ?
1.76

Which fold induction at 100 µM value is on record for O=C(/C=C/C=C/c1ccc2c(c1)OCO2)N1CCCCC1 [Piperine] ?
1.8

I am curious: what fold induction at 100 µM value has been reported for COc1cc2c(c(OC)c1OC)-c1ccc(OC)c(=O)cc1[C@@H](NC(C)=O)CC2 [Colchicine, reference compound] ?
1.32

Endpoint output: fold induction at 100 µM of Oc1cc(O)c2cc(O)c(-c3ccc(O)c(O)c3)[o+]c2c1 [Cyanidin] . Value?
2.97

Name the recorded fold induction at 100 µM for O=C1C[C@@H](c2ccc(O)cc2)Oc2cc(O)cc(O)c21 [Naringenin] .
3.02

Which fold induction at 100 µM value belongs to COC(=O)c1cc(OC)c2c(c1-c1c(C(=O)OC)cc(OC)c3c1OCO3)OCO2 [Bifendate, reference compound] ?
1.76

I would be grateful if you could share the reported fold induction at 100 µM for CN(C)C(=N)N=C(N)N [Metformin, reference compound] .
2.45

Entry under review: O=C1CCC(N2C(=O)c3ccccc3C2=O)C(=O)N1 (stereo not drawn) [Thalidomide, reference compound] . Reported fold induction at 100 µM?
1.88

Quick one: fold induction at 100 µM for C=C(CO)C(=O)O[C@H]1CC(=C)[C@@H]2C[C@H](O)C(=C)[C@@H]2[C@H]2OC(=O)C(=C)[C@@H]21 [Cynaropicrin] ?
3.35

May I ask what fold induction at 100 µM has been recorded for O=c1cc(-c2ccccc2)oc2cc(O)cc(O)c12 [Chrysin] ?
2.89

Could you share which fold induction at 100 µM value was measured for CN1Cc2c(ccc3c2OCO3)[C@@H]2[C@H]1c1cc3c(cc1C[C@@H]2O)OCO3 [Chelidonine] ?
1.53

Recorded fold induction at 100 µM of Oc1ccc(C=Cc2cc(O)cc(O)c2)cc1 [Resveratrol] , please.
3.66

Report fold induction at 100 µM for Oc1cc(O)c2c(c1)O[C@H](c1ccc(O)c(O)c1)[C@H](O)C2 [Epicatechin] please.
2.92
